# credit: ChEMBL document CHEMBL6109057

- System: HepG2
- EXPERIMENTAL_DETAILS: Antiproliferative activity against human HepG2 cells assessed as reduction in cell viability measured after 48 hrs by 3-(4,5-dimethylthiazol-2-yl)-2,5-diphenyltetrazolium bromide assay
- Format: functional, cell-based
- CONDITION_SUMMARY: HepG2, 48 h
EXPERIMENTAL_READOUT: IC50 (µM)
Note: unit µM is implicit; provide only the numeric part.

Endpoint output: IC50 of `COc1ccc2c3c([nH]c2c1)C(C)=NCC3` . Value?
11.2

---

- Tested on: SGC-7901
- EXPERIMENTAL_DETAILS: Antiproliferative activity against human SGC-7901 cells assessed as reduction in cell viability measured after 48 hrs by MTT assay
- Format: functional, cell-based
- CONDITION_SUMMARY: SGC-7901, 48 h
EXPERIMENTAL_READOUT: IC50 (µM)
Answer in µM, number only, no unit symbol.

// returns reported IC50 for input `COc1ccc2c3c([nH]c2c1)C(C)=NCC3`
4.08
